- condition_details: in n-propanol, 278.15 K
measured_parameter: solubility (mole fraction)
Keep it simple and answer with nothing but the number.

## Input Bench note: what solubility (mole fraction) did `OC[C@@H](O)[C@@H](O)[C@H](O)[C@@H](O)CO` show?
## Output 0.000553

* * *

- condition_details: in acetone, 278.15 K
measured_parameter: solubility (mole fraction)
Answer field: number only, no words.

## Input Which solubility (mole fraction) value is on record for `OC[C@@H](O)[C@@H](O)[C@H](O)[C@@H](O)CO` ?
## Output 0.000225

* * *

- condition_details: in n-butanol, 288.15 K
measured_parameter: solubility (mole fraction)
Answer using only a numeral; do not append any unit.

## Input Quick check: solubility (mole fraction) of `OC[C@@H](O)[C@@H](O)[C@H](O)[C@@H](O)CO` ?
## Output 0.000627

Taken from BigSolDB 2.1.
